- measurement target: Ba/F3 cell EGFR Exon20 ins NPH (Homo sapiens, UniProt P00533, INS773NPH)
- Construct: expressed in transfected cells; host or cells: Ba/F3
- test protocol: Ba/F3 cell proliferation suppression, EGFR Exon20 ins NPH
- Assay type: cell-based
- reported conditions: GI50 class; Ba/F3 cell line with NPH inserted at Exon20 of EGFR; 72 hours
readout kind: Ba/F3 (NPH) Activity

>>> reading("C=CC(=O)Nc1cc(Nc2cc(N3OCC[C@@H]3Cc3cccc(F)c3)ncn2)c(OC)cc1N1CCC(N2CCN(C3CC3)[C@@H](C)C2)CC1")
"A (GI50 < 50 nM)"
>>> reading("C=CC(=O)Nc1cc(Nc2cc(N3OCC[C@@H]3c3ccc(F)c(Cl)c3)ncn2)c(OC)cc1N1CCC(N2CC[C@@H](N(C)C)C2)CC1")
"A (GI50 < 50 nM)"
>>> reading("C=CC(=O)Nc1cc(Nc2cc(N3OCC[C@@H]3c3cccc(Cl)c3)ncn2)c(OC)cc1N1CCC(N2C[C@H]3C[C@@H]2CO3)CC1")
"A (GI50 < 50 nM)"
>>> reading("C=CC(=O)Nc1cc(Nc2cc(N3OCC[C@@H]3c3ccc(F)cc3F)ncn2)c(OC)cc1N1CCC(N2C[C@H]3C[C@@H]2CO3)CC1")
"A (GI50 < 50 nM)"
>>> reading("C=CC(=O)Nc1cc(Nc2cc(N3OCC[C@@H]3c3cc(F)ccc3F)ncn2)c(OC)cc1N1CCN(C2CC2)CC1")
"A (GI50 < 50 nM)"
>>> reading("C#Cc1cccc([C@H]2CCON2c2cc(Nc3cc(NC(=O)C=C)c(N4CCN(CC)CC4)cc3OC)ncn2)c1")
"A (GI50 < 50 nM)"
>>> reading("C=CC(=O)Nc1cc(Nc2cc(N3OCC[C@@H]3c3ccc(F)cc3F)ncn2)c(OC)cc1N1CCC(N2CCN(C(C)=O)CC2)CC1")
"A (GI50 < 50 nM)"
>>> reading("C=CC(=O)Nc1cc(Nc2cc(N3OCC[C@@H]3c3ccc(F)cc3F)ncn2)c(OC)cc1N1CCC(N2CCN(C3CCN(C)CC3)CC2)CC1")
"A (GI50 < 50 nM)"
>>> reading("C=CC(=O)Nc1cc(Nc2cc(N3OCC[C@@H]3c3cccs3)ncn2)c(OC)cc1N(C)CCN(C)C")
"A (GI50 < 50 nM)"

* * *

- measurement target: Ba/F3 cell EGFR Exon20 ins NPH (Homo sapiens, UniProt P00533, INS773NPH)
- Construct: expressed in transfected cells; host or cells: Ba/F3
- test protocol: Ba/F3 cell proliferation suppression, EGFR Exon20 ins NPH
- Format: cell-based
- reported conditions: GI50 class; Ba/F3 cell line with NPH inserted at Exon20 of EGFR; 72 hours
- Procedure: The following experiment was carried out to evaluate the suppression activity of the compounds according to the present invention against proliferation of Ba/F3 and lung cancer cells which express EGFR mutations. Of the cancer cell lines expressing the EGFR gene, A549 was cultured after adding 10% FBS (HyClone) to DMEM (Invitrogen), and RPMI-1640 (Invitrogen) with 10% FBS was used for the other cancer cells. […] The result was calculated as a cell growth ratio (%) compared to a control. […]
readout kind: Ba/F3 (NPH) Activity

>>> reading("C=CC(=O)Nc1cc(Nc2cc(N3OCC[C@@H]3c3cc(F)ccc3F)ncn2)c(OC)cc1N1C[C@@H](C)N(CC)[C@@H](C)C1")
"A (GI50 < 50 nM)"
>>> reading("C=CC(=O)Nc1cc(Nc2cc(N3OCC[C@@H]3c3cccc(Cl)c3F)ncn2)c(OC)cc1N1CCC(N2CCN(C3CC3)[C@@H](C)C2)CC1")
"A (GI50 < 50 nM)"
>>> reading("C#Cc1cccc([C@H]2CCON2c2cc(Nc3cc(NC(=O)C=C)c(N4CCC(N(C)C)CC4)cc3OC)ncn2)c1")
"A (GI50 < 50 nM)"
>>> reading("C=CC(=O)Nc1cc(Nc2cc(N3OCC[C@@H]3Cc3ccccc3)ncn2)c(OC)cc1N(C)CCN(C)C")
"A (GI50 < 50 nM)"
>>> reading("C=CC(=O)Nc1cc(Nc2cc(N3OCC[C@@H]3c3ccc(Cl)cc3)ncn2)c(OC)cc1N1CCC(N2CCN(C3CCC3)CC2)CC1")
"A (GI50 < 50 nM)"
>>> reading("C=CC(=O)Nc1cc(Nc2cc(N3OCC[C@@H]3c3cccc(Cl)c3)ncn2)c(OC)cc1N1CCC(N2CCC(N(C)C)CC2)CC1")
"A (GI50 < 50 nM)"
>>> reading("C=CC(=O)Nc1cc(Nc2cc(N3OCC[C@@H]3c3cccc(Cl)c3C)ncn2)c(OC)cc1N1CCC(N2C[C@@H](C)O[C@@H](C)C2)CC1")
"A (GI50 < 50 nM)"
>>> reading("C=CC(=O)Nc1cc(Nc2cc(N3OCC[C@@H]3Cc3ccccc3)ncn2)c(OC)cc1N1CC[C@@H](N(C)C)C1")
"A (GI50 < 50 nM)"
>>> reading("C=CC(=O)Nc1cc(Nc2cc(N3OCC[C@@H]3c3cccc(Cl)c3C)ncn2)c(OC)cc1N1CC[C@@H](N(C)C)C1")
"A (GI50 < 50 nM)"
>>> reading("C=CC(=O)Nc1cc(Nc2cc(N3OCC[C@@H]3c3ccccc3)ncn2)c(OC)cc1N1C[C@H]2C[C@@H]1CO2")
"A (GI50 < 50 nM)"
>>> reading("C=CC(=O)Nc1cc(Nc2cc(N3OCC[C@@H]3c3cccc(F)c3F)ncn2)c(OC)cc1N1CCC(N2CCN(C3CC3)[C@@H](C)C2)CC1")
"A (GI50 < 50 nM)"
>>> reading("C=CC(=O)Nc1cc(Nc2cc(N3OCC[C@@H]3c3cc(F)ccc3F)ncn2)c(OC)cc1N1CCN(C2CC2)C[C@@H]1C")
"A (GI50 < 50 nM)"
>>> reading("C=CC(=O)Nc1cc(Nc2cc(N3OCC[C@@H]3c3ccccc3)ncn2)c(OC)cc1N1CCC(N(C)CCN(C)C)CC1")
"A (GI50 < 50 nM)"
>>> reading("C=CC(=O)Nc1cc(Nc2cc(N3OCC[C@@H]3c3cccc(Cl)c3Cl)ncn2)c(OC)cc1N1CCN(C2CC2)[C@H](C)C1")
"A (GI50 < 50 nM)"
>>> reading("C=CC(=O)Nc1cc(Nc2cc(N3OCC[C@@H]3Cc3cccc(F)c3)ncn2)c(OC)cc1N1CCC(N2C[C@H]3CC[C@@H](C2)N3C2CC2)CC1")
"A (GI50 < 50 nM)"
>>> reading("C=CC(=O)Nc1cc(Nc2cc(N3OCC[C@@H]3c3c(F)ccc(F)c3F)ncn2)c(OC)cc1N1CCC(N2CCN(C3CCC3)CC2)CC1")
"A (GI50 < 50 nM)"
>>> reading("C=CC(=O)Nc1cc(Nc2cc(N3OCC[C@@H]3Cc3cccc(F)c3C)ncn2)c(OC)cc1N1CCC(N2C[C@H]3C[C@@H]2CO3)CC1")
"A (GI50 < 50 nM)"
>>> reading("C=CC(=O)Nc1cc(Nc2cc(N3OCC[C@@H]3c3ccccc3)ncn2)c(OC)cc1N1CC[C@@H](N(C)C)C1")
"A (GI50 < 50 nM)"
>>> reading("C=CC(=O)Nc1cc(Nc2cc(N3OCC[C@@H]3c3cccc(F)c3Cl)ncn2)c(OC)cc1N1CCN(C)CC1")
"A (GI50 < 50 nM)"
